These entries and their values trace back to PubChem BioAssay (NCI).

- System: RXF 393 renal
- procedure-text: NCI-60 one-dose screen, 48 h (100 = growth as untreated, 0 = no growth, -100 = all killed)
- test-parameters: 10 µM
The panel holds about 83,000 compounds, 20% with a hit somewhere; the sample as a whole holds those more often.
Would you mind telling me the reported growth of each entry?
Give bare numbers, in %.

The examples below pair each entry with its known result.
[[record]]
compound = "CC(=O)Oc1c(C)c(C)c2c(c1C)CCC(C)(CC(=O)OCCCCCCCCCCC[P+](c1ccccc1)(c1ccccc1)c1ccccc1)O2 (stereo not given)"
target_entity = "RXF 393 renal"
data_value = -89.5

[[record]]
compound = "COc1cc(NS(C)(=O)=O)ccc1Nc1c2ccc(Cl)cc2nc2c(OC)cccc12"
target_entity = "RXF 393 renal"
data_value = -11.3

[[record]]
compound = "NC(N)=NS(=O)(=O)c1ccc(Nc2ccc3nnc(-c4ccncc4)n3n2)cc1"
target_entity = "RXF 393 renal"
data_value = 106


Quick batch: growth for everything below.
1. COc1ccc(-c2nsc3c2NC(=O)CC3c2ccc(Cl)cc2)cc1 (stereo not given)
2. COc1ccc2c(c1)/C(=C/c1cc(OC)c(OC)c(OC)c1)C(=O)N2C
3. CCN(CC)CCOC(=O)c1ccc(N=Nc2ccc(O)c(OC)c2)cc1
4. Clc1cc(Cl)c(OCCCCCCN2CCNCC2)c(Cl)c1
5. COc1ccc(C2=Cc3ccc(OC(C)=O)cc3OC2)cc1

[105, -60.8, 89.4, 24.1, 94.7]

Quick batch: growth for everything below.
1. CN1CCN(c2nc(-c3cccnc3)nc3sc4c(c23)CCCCCC4)CC1
2. O=c1oc2cc(OS(=O)(=O)C3CC3)ccc2c2c1CCCCCC2
3. CC(=O)Nc1nc(C)c(C(=O)NNC=O)s1
4. CCOC(=O)[C@@H]1[C@H](c2ccccc2)[C@H]([N+](=O)[O-])[C@H](c2cn(-c3ccccc3)nc2C)N1Cc1ccccc1
5. COc1cc(N=C2C(=O)N(Cc3ccccc3)c3ccccc32)cc(OC)c1OC
6. O=S(=O)(NC1c2ccccc2Oc2ccccc21)c1ccccc1

1. 79.4
2. 88.3
3. 109
4. 69.9
5. -23
6. 86.6

Quick batch: growth for everything below.
1. Nc1ncncc1-c1ccc(F)cc1
2. [O-]c1c[n+](-c2ccc(Cl)cc2)no1
3. Cc1cc(Cl)ccc1Nc1nc(C(F)(F)F)ccc1C(=O)N/N=C/c1ccccc1Cl
4. CC1(C)Cc2c(cn(Cc3ccccc3)c2-c2ccccc2)-c2oncc21
5. Cc1ccc(NS(=O)(=O)c2ccccc2)c(NS(=O)(=O)c2ccccc2)c1
6. COc1cc2ccnc(C=O)c2cc1OC

[109, 116, 24.1, 98, 130, 67.6]

###

- Tested on: SW-620 colon
- procedure-text: NCI-60 one-dose screen, 48 h
- test-parameters: 10 µM
About 83,000 compounds went through this panel and 20% of them were active in at least one assay; those are over-represented in the sample as a whole. Activity calls are given as the source filed them. How the source made its calls: active means growth percent below 10; inactive means the rest.
Outcome (select one): T for active, F for inactive

Here are 5 molecules together with their reported answers.
[[record]]
molecule = "O=C1NN(c2ccccc2)C(c2cccnc2)=N/C1=C\\c1cccnc1"
label_value = "F"

[[record]]
molecule = "COc1cc(CSc2nc3ccc(Cl)cc3c(=O)n2-c2ccccc2)cc(OC)c1OC"
label_value = "F"

[[record]]
molecule = "CCCCCCCCCCCCCCCC(=O)N1CCN(C)CC1"
label_value = "F"

[[record]]
molecule = "O=C1/C(=C/c2ccc(O)cc2)Oc2ccc(Cl)cc21"
label_value = "F"

[[record]]
molecule = "COc1ccc(-c2cn[nH]c2-c2cc(OC)c(OC)c(OC)c2)cc1"
label_value = "F"


Tell me the recorded outcome of this test for CN(C)c1ccc2c(c1)OC(N)=C(C#N)C2c1ccc2c(c1)CCCN2C (centres undefined) . F

Tell me the recorded outcome of this test for O=NN(CC(=O)N/N=C/C=C\c1ccccc1)CC(=O)N/N=C/C=C/c1ccccc1 . F

Tell me the recorded outcome of this test for Cn1c([N+](=O)[O-])cnc1/C=C1\Oc2ccc(Br)cc2C1=O . T

Tell me the recorded outcome of this test for COc1ccc(-c2[nH]ncc2/C=C/c2cc(C(F)(F)F)[nH]c(=O)n2)cc1 . F

###

- Tested on: SK-MEL-5 melanoma
- procedure-text: NCI-60 one-dose screen, 48 h (100 = growth as untreated, 0 = no growth, -100 = all killed)
- test-parameters: 10 µM
The panel holds about 83,000 compounds, 20% with a hit somewhere; the sample as a whole holds those more often.
Would you mind telling me the reported growth of each entry?
Answers are plain numbers, in %.

The examples below pair each entry with its known result.
[[record]]
compound = "COc1ccc2nc(C)cc(Nc3ccc(Cl)cc3)c2c1"
data_value = 93.7

[[record]]
compound = "COc1ccc(-c2nc(SCC(=O)c3ccc(Br)cc3)[nH]c(=O)c2C#N)cc1"
data_value = 110

[[record]]
compound = "COc1ccc(C(C)=O)cc1N1C(=O)C2C(C1=O)C1(c3ccccc3)C(=O)C2(c2ccccc2)C(c2ccc(C)cc2)=C1c1ccc(C)cc1 (centres undefined)"
data_value = -29.1


Continue with the compound presented below.
For CC(=O)Nc1nc(C)c(C(=O)N/N=C/c2cccn2C)s1 , what is its reported growth? 98.4

###

- System: SK-OV-3 ovarian
- procedure-text: NCI-60 one-dose screen, 48 h (100 = growth as untreated, 0 = no growth, -100 = all killed)
- test-parameters: 10 µM
Compounds without any hit were thinned out: in the full panel of roughly 83,000, 20% have a hit.
Would you mind telling me the reported growth of each entry?
Answers are plain numbers, in %.

Quick batch: growth for everything below.
1. COc1ccc(COC(=O)CC(C)C)cc1
2. O=C(NC1CCN(Cc2ccccc2)CC1)c1cc(-c2ccncc2)nc2ccc(Cl)cc12
3. COc1cccc(C2(C)Nc3ccccc3-c3nc4ccccc4n32)c1 (stereo unspecified)
4. COc1ccc(C2=Cc3ccc(OC(C)=O)cc3OC2)cc1
5. CCCCNC(=O)Oc1ccc(/C(=C(\C)c2ccc(OC)cc2)c2ccc(OCCN3CCCCC3)cc2)cc1
6. Cn1cnc([N+](=O)[O-])c1Sc1nnc(-c2ccccc2)c(-c2ccccc2)n1

1. 102
2. 53.1
3. 104
4. 119
5. 66.7
6. 120

###

- System: HCC-2998 colon
- procedure-text: NCI-60 one-dose screen, 48 h
- test-parameters: 10 µM
This is part of a sample that, as a whole, favours compounds with a hit. Of some 83,000 tested, about 20% had one in any assay. Active and inactive are the calls of the source. The calls were made as follows: active = growth percent below 10; inactive = the rest.
Outcome (select one): Yes for active, No for inactive

[[record]]
molecule = "NS(=O)(=O)c1ccc(N2N=C(c3ccc(-c4ccccc4)cc3)CC2c2ccc(Cl)cc2)cc1 (configuration not stated)"
target_entity = "HCC-2998 colon"
label_value = "No"


Please find the next molecule below.
Tell me the recorded outcome of this test for COc1ccc(C2C=C(c3ccc(OC)c(OC)c3)N=C3SC=CN32)c(Br)c1 (configuration not stated) . No

###

- System: SF-539 CNS
- procedure-text: NCI-60 one-dose screen, 48 h
- test-parameters: 10 µM
Compounds without any hit were thinned out: in the full panel of roughly 83,000, 20% have a hit. Activity calls are given as the source filed them. How the source made its calls: active means growth percent below 10; inactive means the rest.
Outcome (select one): 1.0 (active), 0.0 (inactive)

Here are 6 compounds together with their reported answers.
[[record]]
compound = "CCN(CC)CC(O)Cc1ccc(OC)cc1 (configuration not stated)"
label_value = 0.0

[[record]]
compound = "CCCCCN(CCCCC)C(C)C(O)c1ccc2cc(Cl)c3ccccc3c2c1 (configuration not stated)"
label_value = 0.0

[[record]]
compound = "O=C(Nc1ccc(OS(=O)(=O)Cc2ccccc2)cc1)C12CC3CC(CC(C3)C1)C2"
label_value = 0.0

[[record]]
compound = "CCOC(=O)c1c(C(F)(F)F)n([O-])c2ccc(OC)cc2[n+]1=O"
label_value = 0.0

[[record]]
compound = "COc1cc(C(c2c[nH]c3ccccc23)N2CCCC2)ccc1OCc1ccccc1 (configuration not stated)"
label_value = 1.0

[[record]]
compound = "O=C/C=C/c1ccc([N+](=O)[O-])cc1Cl"
label_value = 0.0


Tell me the recorded outcome of this test for CCOC(=O)[C@@H]1[C@H](c2ccccc2)[C@H]([N+](=O)[O-])[C@H](c2cn(-c3ccccc3)nc2C)N1Cc1ccccc1 . 0.0

Tell me the recorded outcome of this test for Nc1ccc(Sc2ccc3c4c2cccc4c(=O)n2c4ccccc4nc32)cc1 . 0.0

Tell me the recorded outcome of this test for N#Cc1ncc(-c2cc(F)ccc2F)c(NC2CCCCCC2)n1 . 0.0

###

- Tested on: COLO 205 colon
- procedure-text: NCI-60 one-dose screen, 48 h (100 = growth as untreated, 0 = no growth, -100 = all killed)
- test-parameters: 10 µM
This is part of a sample that, as a whole, favours compounds with a hit. Of some 83,000 tested, about 20% had one in any assay.
Friendly reminder: growth below 40% is 1, at or above is -1.

Here are 5 compounds together with their reported answers.
[[record]]
smiles_input = "O=C(COc1ccc(-c2nc3ccccc3[nH]2)cc1)N=Nc1c(O)[nH]c2ccccc12"
label_value = -1

[[record]]
smiles_input = "S=C(Cc1ccc(-c2ccccc2)cc1)N1CCOCC1"
label_value = -1

[[record]]
smiles_input = "Clc1ccc(-c2nc(-c3cccs3)cn3ccnc23)cc1"
label_value = -1

[[record]]
smiles_input = "O=[N+]([O-])c1ccc(S(=O)(=O)OCCCCOS(=O)(=O)c2ccc([N+](=O)[O-])cc2)cc1"
label_value = -1

[[record]]
smiles_input = "CCOC(=O)[C@@H]1[C@H](c2ccccc2)[C@H]([N+](=O)[O-])[C@H](c2cn(-c3ccccc3)nc2C)N1Cc1ccccc1"
label_value = -1


Below 40% on growth? Entry Cc1ccc(Cl)cc1Nc1nc(C(F)(F)F)ccc1C(=O)N/N=C/c1c(Cl)cccc1Cl 1

Below 40% on growth? Entry Cc1ccc(-n2c(-c3cc4c([nH]c5ccccc54)c(-c4cccc(O)c4)n3)n[nH]c2=S)cc1 1

Below 40% on growth? Entry COC(=O)[C@]12CC[C@@H](C)[C@H](C)[C@@H]1C1=CC[C@@H]3[C@@]4(C)C/C(=N\O)[C@H](O)[C@@]5(C)COC(=C45)C[C@@]3(C)[C@]1(C)CC2 1

Below 40% on growth? Entry CCOCC[P+](c1ccccc1)(c1ccccc1)c1ccccc1 -1

Below 40% on growth? Entry O=C(Nc1ccc(Oc2ccc(Nc3nc4ccccc4s3)cc2)cc1)Nc1ccc(Cl)c(Cl)c1 1
